Exercise: for every item that follows, state its recorded IC50.
Tested on: Immortalized human astrocytes
Assay: MTT cell viability assay, astrocytes (non-cancer control)
Assay type: cell-based
Conditions: Homo sapiens, Astrocyte, 72 h, immortalized human astrocytes, MTT after three days
Procedure: Different concentration of compounds were added to the cells. Three days later, a MTT assay (Sigma) was performed to monitor cell viability. In this example, samples of glioblastoma cells (U87) and astrocyte cells (non-cancer control) were exposed various disclosed compounds to determine the effectiveness of the compounds for inhibiting cell growth.

get_value(item= CC(C)(C)OC(=O)N1CCCC(CO)(CCCc2ccccc2)C1 (centres unmarked) , readout=IC50) returns > 80 µM

IC50 recorded for this compound, `Nc1nccc(N2CCC[C@H](COCc3ccccc3)C2)n1` , is ~40 µM

// COC(=O)C1CCCN(C(=O)OC(C)(C)C)C1 (centres unmarked) : IC50 value = > 80 µM

Consider `COc1c(Cl)ncnc1N1CCC(CO)(CCCc2ccccc2)CC1` . Its measured IC50 is ~6 µM

Lab note: measured IC50 of Nc1nccc(N2CCCC(C(=O)NCCc3ccccc3)C2)n1 (centres unmarked) was > 80 µM

Record CS(=O)(=O)OCC1(CCCc2ccccc2)CCCN(c2ccnc(N)n2)C1 (centres unmarked) . Reported IC50: > 80 µM

For reference, reported IC50 for Cc1ncnc(N2CCCC(CO)(CCCc3ccccc3)C2)c1C (centres unmarked) stands at ~80 µM

Quick note, IC50 for Cc1c(Cl)ncnc1N1CCCC(CO)(CCCc2ccccc2)C1 (centres unmarked) landed at > 80 µM

# IC50 of `Clc1cc(N2CCc3ccccc3C2)ncn1` = > 80 µM

Record summary for `Nc1ccnc(N2CCC(CO)(CCCc3ccccc3)CC2)n1` : reported IC50 = > 80 µM

So, `Nc1nccc(N2CCC[C@@H](COCc3ccccc3)C2)n1` ? Its IC50 was > 80 µM

Looking up O=C(c1sc2cc(F)ccc2c1Cl)N1CCCC(CO)(CCCc2ccccc2)C1 (centres unmarked) , I found its IC50 recorded as 49 µM

// field: IC50; key: `OCC1(CCCc2ccccc2)CCN(c2cc(Cl)ncn2)CC1` ; value = > 80 µM

For Nc1nccc(N2CCCC(COCc3ccccc3)C2)n1 (centres unmarked) the compound record lists IC50 as ~80 µM
